# maps each entry to its melting point

Here's what some known entries look like.
Inquiry: State its melting point for this molecule: Cc1cc(-c2csc(N)n2)on1
Reply text: 208 to 210 °C

Inquiry: State its melting point for this molecule: CN(C)Cc1cc(Cl)ccc1OCCN(C)Cc1ccc(C(N)=O)cc1
Reply text: 108 to 109 °C

Inquiry: State its melting point for this molecule: COc1ccc(Nc2nc(O)c3sccc3n2)c(C)c1
Reply text: 246 to 248 °C

Inquiry: State its melting point for this molecule: CCc1c(-c2ccc(OCc3ccccc3)cc2)c2cc(COCCCN(C)C)c3cccc1n32
Reply text: 63 to 65 °C

Inquiry: State its melting point for this molecule: CCCCCS(=O)(=O)NC(=O)/C(C)=C/c1ccc(OCCOC)cc1Oc1ncc(C(F)(F)F)cc1Cl
Reply text: 108 to 111 °C

Inquiry: State its melting point for this molecule: CC(=O)Oc1ccc(-n2c(-c3ccccc3)cc3c2CCCC3)cc1C(=O)O
Reply text: 155 to 162 °C

Others:
Inquiry: State its melting point for this molecule: Cn1nc(-c2ccc3c(c2)OCO3)c(-c2ccncc2)c1NC(=O)Cc1ccccc1
Reply text: 128 to 132 °C

Inquiry: State its melting point for this molecule: NS(=O)(=O)c1ccccc1C1CO1 (stereo not given)
Reply text: 136 to 139 °C

Inquiry: State its melting point for this molecule: CCC(=O)Nc1ccc(C)c(O)c1C
Reply text: 140 °C

Inquiry: State its melting point for this molecule: COc1ccccc1C1=Nc2ccc(N3CCOCC3)cc2C(=O)C1
Reply text: 262 to 264 °C
